Assay: qHTS RealTime-Glo MT Cell Viability Assay in HepG2 cells - 16 hour (AID 1224885); note: nearly all actives have a fitted effect of over 50% in size; note: potency is the fitted concentration of half-maximal effect
Conditions: RealTime-Glo luminescence; series mostly up to 76.8 µM
Results filed as inconclusive are left out. Activity calls are given as the source filed them. Calls come from the whole dose curve; as a rule, active = well fitted cell-killing curve with a large enough effect in the repeat runs; inconclusive = weak or mixed curves; inactive = flat fitted curve, though single readings scatter.
outcome-measure: Potency

Solved entries:
OCCCc1cccnc1
inactive
Cc1cn[nH]c1
inactive
CCCN(CCc1cccs1)[C@H]1CCc2c(O)cccc2C1
inactive
c1ccc2c(c1)CCC2
inactive
COc1cccc(OC)c1O
inactive
CCCCCCCCCCOCC(O)CN (stereo not given)
16.9 µM (active)
COc1cccc(CCc2ccccc2OCC(CN(C)C)OC(=O)CCC(=O)O)c1 (stereo not given)
inactive
O=C(c1ccccc1)c1cc(Cl)ccc1O
inactive
O=c1cccc[nH]1
inactive
COc1ccc(C#N)cc1
inactive

The recorded Potency for entry O=C(Nc1ccc(Cl)c(Cl)c1)c1cc(Cl)cc(Cl)c1O equals inactive

The recorded Potency for entry CN(Cc1cc(Br)cc(Br)c1N)C1CCCCC1 equals inactive

The recorded Potency for entry Nc1cc(Cl)c([N+](=O)[O-])cc1O equals inactive

The recorded Potency for entry Clc1cccnc1 equals inactive

The recorded Potency for entry C1CC(COCC2CO2)CCC1COCC1CO1 (stereo not given) equals inactive

The recorded Potency for entry CCCCCCCCCCCCCCCC equals inactive

The recorded Potency for entry Clc1nc2ccccc2s1 equals inactive

The recorded Potency for entry CCN(CC)CCCN(c1ccccc1)C1Cc2ccccc2C1 equals inactive

The recorded Potency for entry O=C(O)Cc1ccc(OCCNC[C@H](O)c2ccccc2)cc1 equals inactive

The recorded Potency for entry NC1(c2ccc(-c3nc4ccn5c(=O)[nH]nc5c4cc3-c3ccccc3)cc2)CCC1 equals 23.9 µM (active)

The recorded Potency for entry CCCCCCCCCC(=O)N(C)C equals inactive

The recorded Potency for entry CCN(CC)CCOC(=O)C1(C2CCCCC2)CCCCC1 equals inactive

The recorded Potency for entry CC(C)c1ccc(O)c(C(C)C)c1 equals inactive

====

Assay: qHTS assay to identify small molecule antagonists of the sonic hedgehog signaling (Shh) pathway - cell viability counter screen (AID 1259367); note: nearly all actives have a fitted effect of over 55% in size
Details: NIH/3T3 Gli1-Luc viability, CellTiter-Fluor, 24 h; series mostly up to 92.4 µM
Records with an inconclusive call do not appear. Calls of active or inactive are those of the source. Calls follow the shape of the dose curve; as a rule, active = well fitted cell-killing curve with a large enough effect in the repeat runs; inconclusive = weak or mixed curves, or effect the other way; inactive = no such curve, though single readings can be large or run the other way.
Your response should consist of one outcome taken from active, inactive

As a guide, the following entries are already answered.
CC(C)=CCCC(C)O (stereo not given)
inactive
C=CC(=C)CCC=C(C)C
inactive
C#CC(O)CCC (stereo not given)
inactive
CCOB(OCC)OCC
inactive
Cc1cc(=O)[nH]c(=O)[nH]1
inactive

Returns: the outcome recorded for Cc1c(C)n(Cc2ccccc2)c2ccc(C(=O)OCCN(C)C)cc12 in this assay.
inactive

Returns: the outcome recorded for O=C[C@H](O)[C@H](O)[C@H](O)CO in this assay.
inactive

Returns: the outcome recorded for CCCCCCCCCCCCCCCC in this assay.
inactive

Returns: the outcome recorded for CCOC(=O)COc1ccc(C)cc1 in this assay.
inactive

Returns: the outcome recorded for CCc1ccc(C)nc1 in this assay.
inactive

Returns: the outcome recorded for C[C@H]1O[C@@H](O[C@H]2[C@@H](O)C[C@H](O[C@H]3[C@@H](O)C[C@H](O[C@H]4CC[C@@]5(C)[C@H](CC[C@@H]6[C@@H]5C[C@@H](O)[C@]5(C)[C@@H](C7=CC(=O)OC7)CC[C@]65O)C4)O[C@@H]3C)O[C@@H]2C)C[C@H](O)[C@@H]1O in this assay.
inactive

Returns: the outcome recorded for CC(C)(C)c1cc(/C=C2\SC(=N)NC2=O)cc(C(C)(C)C)c1O in this assay.
inactive

Returns: the outcome recorded for CCCCCCCCCCCCCC[n+]1ccccc1 in this assay.
active

Returns: the outcome recorded for CCO[Si](CCCSSSSCCC[Si](OCC)(OCC)OCC)(OCC)OCC in this assay.
inactive

Returns: the outcome recorded for CC(O)C#CC(C)O (stereo not given) in this assay.
active
